Test system: HT-29
Test: Cytotoxicity against HT-29 cell line in the purdue cell culture screen was determined
Type: functional
Details: Homo sapiens, read-out: ED50 (the source's name)
Measured Property: pEC50
In plain terms, pEC50 is the concentration in mol/L turned into minus its base-10 logarithm.

These recorded examples may help you get a feel for the data.
Summary line: CC(C)CCC(=O)[C@@H](C)[C@@]1(O)[C@H](O)C[C@@]2(C)C3CC[C@@]4(C)C[C@@H](O)CC[C@]4(C)[C@@]3(C)CC[C@]12C (some centres undefined) , HT-29, reported pEC50 = 5.68

Summary line: CC(C)CCC1([C@@H](C)[C@@]2(O)[C@@H](O)C[C@@]3(C)C4CC[C@]5(C)Cc6nc7c(nc6C[C@]5(C)[C@]4(C)CC[C@]23C)C[C@@]2(C)CCC3[C@@H]4C[C@@H]5OC6(O[C@](C)(CO)C[C@H]6O)[C@@H](C)[C@]5(O)[C@@]4(C)[C@H](O)C[C@]3(C)[C@@]2(C)C7)OCCO1 (some centres undefined) , HT-29, reported pEC50 = 6.66

# ---- query compound ----
Summary line: CC(C)CCC(=O)[C@@H](C)[C@@]1(O)C(=O)C[C@@]2(C)C3CC[C@@]4(C)C[C@@H](O)CC[C@]4(C)[C@@]3(C)CC[C@@]21C (some centres undefined) , HT-29, reported pEC50 = 5.80
